# Assay Notes: cytotoxicity assay (MTT)
# Type: cell-based, human
# Test Settings: human; uninfected PBM cells; read-out: Cytotoxicity (EC50-μM) in: PBM
Recorded Endpoint: EC50 at 5 days

A selection of reference data follows.
> print(dat)
                                   molecule  assay.value
1  C=CCc1cc(-c2ccc(O)c(CC=C)c2)ccc1O [drawing 47]     > 100 µM
2  C=CCc1ccc2c(c1)-c1cc(CC=C)ccc1OC(C)(C)O2 [drawing 42]      75.3 µM
3         C=CCc1ccc(O)c(-c2cc(CC=C)ccc2O)c1      38.6 µM
4  CCCc1ccc(O)c(-c2ccc(O)c(CCC)c2)c1 [drawing 44]      45.9 µM
5  C=CCc1ccc(OC)c(-c2ccc(OC)c(CC=C)c2)c1 [drawing 45]     > 100 µM

Next molecule, EC50 at 5 days to be filled in.
The recorded EC50 at 5 days for entry C=CCc1cccc(-c2cccc(CC=C)c2O)c1O [drawing 46] equals > 100 µM
